Target: human FcγR IIb (human CD32b) (Homo sapiens, UniProt P31994)
Sequence (P31994 43-310): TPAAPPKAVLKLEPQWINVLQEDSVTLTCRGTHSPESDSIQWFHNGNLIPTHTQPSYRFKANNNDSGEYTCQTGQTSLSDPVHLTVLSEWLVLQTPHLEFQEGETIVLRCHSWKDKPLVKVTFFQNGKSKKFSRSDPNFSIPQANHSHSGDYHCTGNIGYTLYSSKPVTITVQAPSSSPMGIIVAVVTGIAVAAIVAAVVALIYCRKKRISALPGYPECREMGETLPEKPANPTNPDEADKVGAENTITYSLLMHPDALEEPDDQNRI
Experiment: BIAcore affinity for Fc receptor FcγRIIb
Assay type: binding
Details: pH 7.4
Endpoint label: pKd
Just the number, please; pKd means minus log10 of the concentration in mol/L.

Prompt: Please state recorded pKd (tested on human FcγR IIb (human CD32b) (Homo sapiens, UniProt P31994)) of PADCEV
Response: 4.79
